TEST TARGET: T1, human CD4 on human PBMCs (human, UniProt P01730 26-458)
T1 construct: whole, on cells; the CD4-positive gate was set with the control antibodies OKT4 and RPA-T4; also called hCD4
MEASUREMENT PROTOCOL: FACS, clonal hybridoma supernatant on PBMCs
Quick reference: gMFI of CD4+ of the listed items.
ENDPOINT NAME: gMFI of CD4+ (gMFI)

BINDER	READING
75110_05K11A (antibody, V domains shown, Tested as clonal hybridoma supernatant of an AlivaMab Mouse Kappa antibody (human variable regions, kappa; detected with anti-mouse Fc)) VH: EVQLVESGGGLVQPGGSLRLSCAASGFTFSSYDMHWVRQPTGKGLEWVSTIGTAGDTYYPASVKGRFTISRENAKNSLYLQMNSLRAGDTAVYYCARGGFYYYGMDVWGQGTTVTVSS VL: EIVLTQSPGTLSLSPGERVTLSCRASQSVSNTYLAWYQQKPGQAPRLLIYGASSRATGIPDRFSGSGSGTDFTLTISRLEPEDFVVYYCQQHGSSPFTFGPGTKVDIK	112000
75110_04K10A (antibody, V domains shown, Tested as clonal hybridoma supernatant of an AlivaMab Mouse Kappa antibody (human variable regions, kappa; detected with anti-mouse Fc)) VH: EVQLVESGGGLVQPGGSLRLSCAASGFTFSSYWMSWVRQAPGKGLEWVANINQDGSEKYYVDSVKGRFTISRDNAKNSLYLQLNSLRAEDTAMYYCAREGGQWLSLDYWGQGTLVTVSS VL: DIQMTQSPSSVSASVGDRVTITCRASQGISSWLAWYQQKPGKAPKVLIYGVSSFQSGVPSRFSGSGSGTDFILTISSLQPEDFATYYCQQANSFPWTFGQGTKVEIK	149000
75110_04B08A (antibody, V domains shown, Tested as clonal hybridoma supernatant of an AlivaMab Mouse Kappa antibody (human variable regions, kappa; detected with anti-mouse Fc)) VH: QVQLVESGGGVVQPGRSLRLSCTASGFNFINYGIHWVRQAPGKGLEWVTIIWYDGSKKYYADSVKGRFAISRDNSKNTLYLQMNSLRAEDTAVYYCAREDDWNDGLAYWGQGTLVTVSS VL: AIQMTQSPSSLSASVGDRVTITCRASQDIRNDLGWYQQKPGKAPNLLIYAASNLQSGVPSRFSGSGSGTDFTLTISSLQPEDFATYYCLQDSNYPRTFGQGTKVEIK	246000
75110_05E05A (antibody, V domains shown, Tested as clonal hybridoma supernatant of an AlivaMab Mouse Kappa antibody (human variable regions, kappa; detected with anti-mouse Fc)) VH: QVQLQESGPGLVKPSETLSLTCTVSGGSIGSYYWSWIRQPAGKGLEWIGRIYTSGSTNYNPSLKSRVTMSFDTSKNQFSLKLNSVTAADTAVYYCATDGGVGDSLDYWGQGTLVTVSS VL: DIVMTQTPLSLPVTPGEPASISCRSSQSLLDSDDGNTYLDWYLQKPGQSPQLLIYTLSYRASGVPDRFSGSGSGTDFTLKISRVEAEDVGVYYCMQHIEFPFTFGPGTKVDIK	64000
75110_03L12A (antibody, V domains shown, Tested as clonal hybridoma supernatant of an AlivaMab Mouse Kappa antibody (human variable regions, kappa; detected with anti-mouse Fc)) VH: QVQLQQWGAGLLKPSETLSLTCAVYGGSFSGYYWSWIRQPPGKGLEWIGEINHSGSTNYNPSLKSRVTISVDTSENQFSLTLISVTAADTAVYYCVRLINWFDPWGQGTLVTVSS VL: DIQMTQSPSSVSASVGDRVTITCRASQDISNWLAWYQQKPGKAPKLLIFAASSLQSGVPSRFSGSGSGTDFTLTISSLQPDDFATYYCQQANSFPYTFGQGTNLGIK	162000
75110_05E13A (antibody, V domains shown, Tested as clonal hybridoma supernatant of an AlivaMab Mouse Kappa antibody (human variable regions, kappa; detected with anti-mouse Fc)) VH: EVQLVESGGDLVKPGGSLRLSCAASGFSFSNAWMSWVRQAPGKGLEWVGRVESKTDGGTTDYAAPVKDRFTISRDDSKYTLYLQMNSLKTEDSAVYYCTIGGGFGLELYGFFDYWGQGTLVTVSS VL: DIQMTQSPSTLSASVGDRVTITCRASQSISSWLAWYQQKPGKAPMLLIYKASSLESGVPSRFSGSGSGTEFTLTISSLQPDDFATYYCLQYNSYYTFGQGTKLEIK	257000
75110_05A11A (antibody, V domains shown, Tested as clonal hybridoma supernatant of an AlivaMab Mouse Kappa antibody (human variable regions, kappa; detected with anti-mouse Fc)) VH: EVQLVESGGGLVKPGGSLTLSCAASGFTFSNTWMSWVRQAPGKGLEWVGRIKSKIDGGTTDYAAPVKGRFTISRDDSKNTLYLQMNSLKTEDTAVYYCTTSGTYSSGWGLFDYWGQGTLVTVSS VL: DIQMTQSPSSLSASVGDRVTITCQASQDISNYLNWYQQKPGKAPKLLIYDTSNLEAGVPSRFSGSGSGTHFTLTISSLQPEDIATYYCQQYDNLPFTFGGGTRVEIK	246000
75110_04P06A (antibody, V domains shown, Tested as clonal hybridoma supernatant of an AlivaMab Mouse Kappa antibody (human variable regions, kappa; detected with anti-mouse Fc)) VH: EVQLVESGGGLVQPGGSLRLSCAASGFTFSNYDMHWVRQATGKGLEWVSTIGTAGDTYYPGSVKGRFTISRENAKNSLYLQMNSLRAGDTAVYYCARGGDYYYGMDVWGQGTTVTVSS VL: EIVLTQSPDTLSLSPGERATLSCRASQSLSSVYLAWYQQKPGQAPRLLIYGASSRATGIPDRFSGSGSGTDFTLTINRLEPEDFVVYYCQQYGSSPFTFGPGTKVDIK	241000
75110_04H17A (antibody, V domains shown, Tested as clonal hybridoma supernatant of an AlivaMab Mouse Kappa antibody (human variable regions, kappa; detected with anti-mouse Fc)) VH: QVQLQESGPGLVKPSETLSLTCTVSGGSISTYYWSWIRQSAGKGLEWIGRIYTSERPNYNPSLKSRVTMSVDTSKNQFSLKLNSVSAADTAVYYCARELERPYYYGMDVWGQGTTVTVSS VL: DVQMTQSPSSLSASVGGRVTITCQASQDISNYLNWYQQKPGKAPKLLIYYASNLETGVPSRFSGSGSGTDFTFTISSLQPEDFATYYCQQYDNLPLTFGGGTKVEIK	151000
75110_06C16A (antibody, V domains shown, Tested as clonal hybridoma supernatant of an AlivaMab Mouse Kappa antibody (human variable regions, kappa; detected with anti-mouse Fc)) VH: QVQLQESGPGLVTPSETLSLSCTVSGGSISDYYWSWIRQPGGKGLEWIGRIYSSGSTNYNPSLKSRVTMSVDTSKNQFSLKLSSVTAADTAVYFCARDREDYYYYGMDVWGQGTTVTVSS VL: DIQMTQSPSSLSASVGDRVTITCQASHDISNYLNWYQQKPGKAPKLLIYAASNLETGVPSRFSGSGSGTDFSFTISSLQPEDIATYYCQQYDHLPLTFGGGTKVEIK	270000
